target: CaHof1; assay: SPOT peptide array binding signal intensity (averaged, normalized) (arbitrary units (background-subtracted, floor 0; scale differs between SH3 domains)); higher = stronger binding of the SH3 domain to the peptide
Would you mind telling me the reported SPOT peptide array binding signal intensity of each entry?

Query :: For the binder NVLRKILEIPLHSFS , report SPOT peptide array binding signal intensity.
Result :: ≤ 0

Query :: For the binder DFTLPPPPPPPGLDE , report SPOT peptide array binding signal intensity.
Result :: ≤ 0

Query :: For the binder NRARYLPQNPDIIAG , report SPOT peptide array binding signal intensity.
Result :: ≤ 0

Query :: For the binder PIVPSSPAPPLPLSG , report SPOT peptide array binding signal intensity.
Result :: ≤ 0

Query :: For the binder HVRRSILALPLGVLL , report SPOT peptide array binding signal intensity.
Result :: ≤ 0

Query :: For the binder PPPPPPPPPPPLPQS , report SPOT peptide array binding signal intensity.
Result :: 0.75

Query :: For the binder LASNSPPVYPKRIRH , report SPOT peptide array binding signal intensity.
Result :: 0.25

Query :: For the binder LRIKRKPVQTFFEFI , report SPOT peptide array binding signal intensity.
Result :: ≤ 0

Query :: For the binder RFKRHRLEFPFNESE , report SPOT peptide array binding signal intensity.
Result :: 1.5

Query :: For the binder TYNRTAFQIPGDQSI , report SPOT peptide array binding signal intensity.
Result :: 0.5

Query :: For the binder RRLRDKYKLPIVDAD , report SPOT peptide array binding signal intensity.
Result :: 0.5

Query :: For the binder SGVRLPAPPPPPRRG , report SPOT peptide array binding signal intensity.
Result :: 114

Query :: For the binder RKLRTVPGVPLIHLT , report SPOT peptide array binding signal intensity.
Result :: 0.5

Query :: For the binder RRRIAYPFYPFKKLG , report SPOT peptide array binding signal intensity.
Result :: 0.5

Query :: For the binder KIRRSSLMIPNPQQF , report SPOT peptide array binding signal intensity.
Result :: 1

Query :: For the binder KNRKNLPTIPIRLSG , report SPOT peptide array binding signal intensity.
Result :: 0.25

Query :: For the binder GATNNAPTLPKRKNP , report SPOT peptide array binding signal intensity.
Result :: 1.25

Query :: For the binder AIPPPVPNRPGGTTN , report SPOT peptide array binding signal intensity.
Result :: 0.5

Query :: For the binder KFIPSRPAPKPPSSA , report SPOT peptide array binding signal intensity.
Result :: ≤ 0

Query :: For the binder PELAPKREAPKPPAN , report SPOT peptide array binding signal intensity.
Result :: ≤ 0

Query :: For the binder PHNPSPFFPPPDFND , report SPOT peptide array binding signal intensity.
Result :: ≤ 0

Query :: For the binder GRLRPKRIAPWHLIQ , report SPOT peptide array binding signal intensity.
Result :: 0.75
